system: HCT-15 colon; experiment: NCI-60 one-dose screen, 48 h; settings: 10 µM unless noted
Compounds without any hit were thinned out: in the full panel of roughly 83,000, 20% have a hit. The source made the active and inactive calls. Rule for the calls: active = growth percent below 10; inactive = the rest.
Pick one and only one: active, inactive

O=C(O)c1ccc(-n2cc(CNc3cc(F)c(F)c(F)c3)c(-c3cccc(F)c3)n2)cc1; inactive
O=C(Nc1nc2ccc([N+](=O)[O-])cc2s1)Nc1ccccc1Cl; inactive
C#CCOC(=O)[C@@H]1CCCN1CC#C; inactive
Cc1cccc2c3c(sc12)C(c1ccc(F)cc1)C(C#N)=C(/N=C/c1ccc(Cl)cc1)O3 (centres undefined); active
COc1cc(-c2nn(C(C)(C)C)cc2-c2ccnc(NCCCNS(=O)(=O)c3ccc(F)cc3)n2)ccc1Cl; inactive

Pending compound:
Would you mind telling me which call this test gave CCCSc1nc(Nc2ccc(/C(C)=N\NC(N)=S)cc2)c(C#N)c(-c2ccccc2)n1 ?
inactive

---

test system: SK-OV-3 ovarian; assay: NCI-60 one-dose screen, 48 h (100 = growth as untreated, 0 = no growth, -100 = all killed); settings: 10 µM unless noted
The panel holds about 83,000 compounds, 20% with a hit somewhere; the sample as a whole holds those more often.
readout: growth (%)
Give just the number in %; leave the unit off.

CNC(=O)c1cc(-n2ccc3cc(NC(=O)Nc4ccc(N5CCOCC5)c(C(F)(F)F)c4)ccc32)ccn1; 102
O=C(NCCn1ccnc1)c1ccc(-c2nc3ccc4[nH]ncc4c3c3c2CCCC3)cc1; 63.1
CNc1ncc2cc(-c3ccc(-c4ncccc4F)cc3Cl)c(=O)n(CC3OCC(N)CO3)c2n1 (stereo not given); 75.8
C/C(=N\O)[C@H]1C[C@]23CC[C@]4(C)[C@H](CC[C@@H]5[C@@]6(C)CC/C(=N/O)C(C)(C)[C@@H]6CC[C@]54C)[C@H]2[C@H](C)C1(C)OC3; 122

Kindly review the next molecule as well.
# return growth of COc1ccc(-n2c(/C=C3\C(=O)Nc4ccccc43)ccc2CO)cc1 (system: SK-OV-3 ovarian)
105

---

test system: NCI-H226 lung; assay: NCI-60 one-dose screen, 48 h (100 = growth as untreated, 0 = no growth, -100 = all killed); conditions: 10 µM unless noted
About 83,000 compounds went through this panel and 20% of them were active in at least one assay; those are over-represented in the sample as a whole.
readout: growth (%)
Give the quantity in %, number only.

Enter growth (test system NCI-H226 lung) for Cc1ccc2c(c1)C(=O)/C(=C/c1cccc(F)c1)S2
88.5

Supply growth measured with NCI-H226 lung for Cc1ccc(-n2cc(/C=N/NC(=O)c3ccncc3)c(-c3ccc(S(C)(=O)=O)cc3)n2)cc1 .
101

Send back NCI-H226 lung growth of Cn1cc(-c2nc(N)nnc2-c2c[nH]c3ccccc23)c2cc(Br)ccc21 only.
60.3

Recall the reported growth of O=C(NNc1nc2cc(F)c(F)cc2n2c(CN3CC4CNCC4C3)ccc12)c1cnccn1 (stereo not drawn) when tested on NCI-H226 lung.
16.8

Provide NCI-H226 lung growth reading for O=C(Nc1nc2ccc([N+](=O)[O-])cc2s1)Nc1ccccc1Cl .
30.7

Name the value of growth reported for Oc1ccc(CSc2nnc(-c3ccc(Cl)cc3)n2-c2ccccc2)c2cccnc12 when tested on NCI-H226 lung.
50.9

Check NCI-H226 lung data and give growth for Cn1ccnc1C(=O)/C=C/c1ccc(NC(=O)c2ccc(F)cc2)cc1 .
45.3

Report measured growth on NCI-H226 lung; entry: CC(C)(C)n1nnnc1C(Nc1cccc2c1OCO2)c1cc2cccc3ccc4cccc1c4c32 (stereo not drawn)
82.2
